Target: Tyrosine-protein kinase JAK2 (Homo sapiens)
Assay: Jak2-mediated GST-STAT1 phosphorylation at 2.5 uM after 30 mins by Western blot analysis as % of control
measure_name: residual activity (%)

C/C(=C(/C)c1ccc(CN(C)C)c(O)c1)c1ccc(CN(C)C)c(O)c1 ... 104
C/C(=C(/C)c1ccc(O)c(CN(C)C)c1)c1ccc(O)c(CN(C)C)c1 ... 89.1
CN(C)Cc1cc(/C=C/c2ccc(O)c(CN(C)C)c2)ccc1O ... 71.5
CN(C)Cc1ccc(/C=C/c2ccc(CN(C)C)c(O)c2)cc1O ... 93.3

====

Target: Tyrosine-protein kinase JAK2 (Homo sapiens) (UniProt O60674)
Sequence (O60674 whole entry): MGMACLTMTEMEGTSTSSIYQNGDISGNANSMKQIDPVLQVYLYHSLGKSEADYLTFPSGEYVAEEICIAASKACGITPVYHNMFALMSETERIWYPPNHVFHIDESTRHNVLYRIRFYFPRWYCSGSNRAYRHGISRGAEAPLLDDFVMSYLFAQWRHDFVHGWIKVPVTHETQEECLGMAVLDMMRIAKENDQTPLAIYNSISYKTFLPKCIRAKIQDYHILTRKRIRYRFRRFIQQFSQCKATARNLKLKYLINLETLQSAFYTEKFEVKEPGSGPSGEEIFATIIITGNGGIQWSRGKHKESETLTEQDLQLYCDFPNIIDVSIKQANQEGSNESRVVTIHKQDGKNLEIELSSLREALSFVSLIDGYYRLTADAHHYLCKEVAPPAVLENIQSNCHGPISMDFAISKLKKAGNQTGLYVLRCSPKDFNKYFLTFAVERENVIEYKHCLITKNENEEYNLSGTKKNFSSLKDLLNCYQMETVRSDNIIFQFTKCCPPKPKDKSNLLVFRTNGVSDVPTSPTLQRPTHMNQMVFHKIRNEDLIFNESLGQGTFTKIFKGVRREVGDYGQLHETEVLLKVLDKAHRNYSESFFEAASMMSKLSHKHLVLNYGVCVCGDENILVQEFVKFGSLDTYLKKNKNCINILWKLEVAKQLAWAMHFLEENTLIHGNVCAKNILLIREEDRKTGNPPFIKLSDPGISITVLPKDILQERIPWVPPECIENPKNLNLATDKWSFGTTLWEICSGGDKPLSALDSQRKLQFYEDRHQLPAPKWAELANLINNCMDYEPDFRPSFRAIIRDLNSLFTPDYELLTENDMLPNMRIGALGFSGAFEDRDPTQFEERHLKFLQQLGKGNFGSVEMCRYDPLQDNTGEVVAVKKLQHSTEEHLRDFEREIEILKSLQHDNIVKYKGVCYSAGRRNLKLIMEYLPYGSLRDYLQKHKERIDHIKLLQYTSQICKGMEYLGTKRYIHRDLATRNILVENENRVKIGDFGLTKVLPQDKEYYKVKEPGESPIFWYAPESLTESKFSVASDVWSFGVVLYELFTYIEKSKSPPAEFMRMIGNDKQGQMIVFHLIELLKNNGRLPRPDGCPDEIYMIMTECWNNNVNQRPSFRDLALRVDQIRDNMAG
Test: Jak2 autophosphorylation at 2.5 uM after 30 mins by Western blot analysis as % of control
measure_name: residual activity (%)

C/C(=C(/C)c1ccc(O)c(CN(C)C)c1)c1ccc(O)c(CN(C)C)c1 ... 89.1
CN(C)Cc1ccc(/C=C/c2ccc(CN(C)C)c(O)c2)cc1O ... 94.4

[A] C/C(=C(/C)c1ccc(CN(C)C)c(O)c1)c1ccc(CN(C)C)c(O)c1
[B] CN(C)Cc1cc(/C=C/c2ccc(O)c(CN(C)C)c2)ccc1O
Which is greater in residual activity, the first item A or the second item B ? // output: label of the selected item
A
